These measurements were taken from patent US20150376269A1.

- System Tested: T1, serum resistance-associated protein (SRA) from Trypanosoma brucei rhodesiense, recombinant SRA (SEQ ID NO: … (Trypanosoma brucei rhodesiense, UniProt O96637 31-274))
- T1 construct: also called SRA protein
- T1 sequence: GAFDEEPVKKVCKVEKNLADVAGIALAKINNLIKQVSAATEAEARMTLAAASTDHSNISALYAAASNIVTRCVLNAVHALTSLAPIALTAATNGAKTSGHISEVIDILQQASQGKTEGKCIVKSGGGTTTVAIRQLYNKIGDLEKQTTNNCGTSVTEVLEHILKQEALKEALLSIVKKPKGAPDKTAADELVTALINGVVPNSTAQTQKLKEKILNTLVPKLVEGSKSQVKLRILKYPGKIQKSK
- Procedure Details: SPR, mAb captured, pH 4.5, 25C; competitor biotin-apoL1 peptide
Provide the reported 50 nM SRA + 5 uM apoL1 peptide binding (RU) of each item.
Answers are plain numbers, in RU.

Solved entries (count: 6):
[[record]]
binder = "H1H10041P (antibody, V domains shown, Fully human antibody with human IgG1 Fc (prefix H1H)) VH: QVQLVQSGAEVRKPGSSMKVSCATSGGNFRSYTINWVRQAPGQGLEWMGGVFPAVGTRIYAQKFQGRVTISTDESTTIAYMELNSLVPEDTAVYYCARSFNSPFDFWDQGTLVTVSS VL: AIQMTQSPSSLSASVGDRVTLTCRASQDIRNDLHWFQQTPGKAPRLLIYSASNLQSGVPSRFSGTGSGTDFTLTFSSLQPEDFATYYCLQDYSYPYTFGQGTKLEIK"
readout_unit = "RU"
value_measured = 3

[[record]]
binder = "H1H10031P (antibody, V domains shown, Fully human antibody with human IgG1 Fc (prefix H1H)) VH: EVQLVESGGNVVRPGGSLRLSCSGSGFAFENYGMSWVRQGPGKGLEWVSNINWNGGSLNYVDSVKGRFTISRDNAKNSLYLQMNSLRAEDTALYYCARVIVYGMDVWGQGTTVTVSS VL: DIQMTQSPSSLSASVGDRVTITCRASQGIRNGLGWFQQKPGKAPKRLIYATSSLQSGVPSRFSGSGSGTEFTLTISSLQPEDFATYYCLQSNSYPWTFGQGTKVEIK"
readout_unit = "RU"
value_measured = 45

[[record]]
binder = "H1H10069P (antibody, V domains shown, Fully human antibody with human IgG1 Fc (prefix H1H)) VH: QVQLQESGPGLVKPSETLSLTCSVSGGSFTNYYWSWIRQPPGKGLEWIGSVFYSGTTNYNPSLQSRVTLSIETSKNQFSLRLNSVTAADTAVYYCARDQGAAALDYWGQGTLVTVSS VL: DIQMTQSPSTLSASVGDRLTITCRASQSINNWLAWYQQKPGKAPKLLIYKASNLESGVPSRFSGSGSGTEFTLTISNLQPDDFATYYCQQYNSFFLTFGGGTKVEIK"
readout_unit = "RU"
value_measured = 62

[[record]]
binder = "H1H10026P (antibody, V domains shown, Fully human antibody with human IgG1 Fc (prefix H1H)) VH: QVQLVESGGGVVQPGRSLRLSCEASGFTFSIYGMHWVRQAPGKGLEWVAVISYDGTNRYYADSVKGRFTISRDNSKNTLYLQMNSLRAEDTAVYYCAKVNIWNFLFDYWGQGTLVTVSS VL: EIVLTQSPGTLSLSPGERATLSCRASQSVSGNYLAWYQQKPGQAPRLLIYGPSSRATGIPDRFSGSGSGTDFTLTISRLEPEDFAVYYCQQYGTSLTFGGGTKVEIK"
readout_unit = "RU"
value_measured = 84

[[record]]
binder = "H1H10059P (antibody, V domains shown, Fully human antibody with human IgG1 Fc (prefix H1H)) VH: QVQLVQSGAEVKKPGASVKVSCKAAGFTFIGYYIHWVRQAPGQGLEWMGWINSNSGDKDSAPKFQDRVTMTRDTSISTAYMELSRLRSDDTAVYFCAREGYNFGHFDYWGQGTLVTVSS VL: DIVMTQTPLSSPVTLGQPASISCRSSQSLVHSDGNTYLSWLQQRPGQPPRLLIYKISNRLSGVPDRFSGSGAGTDFTLKISRVEGEDVGVYYCMQGTQFPRTFGQGTKVEIK"
readout_unit = "RU"
value_measured = -9

[[record]]
binder = "H1H10027P (antibody, V domains shown, Fully human antibody with human IgG1 Fc (prefix H1H)) VH: EVQLVESGGALVQPGRSLTLSCAASGFTFDDYTMHWVRQTPGKGLEWVSGILWNSDNLVYADSVKGRFTISRDNAKNSLYLQMNSLRVEDTALYYCTKEIDYLTLGGNAFDVWGQGTMVTVSS VL: DIQMTQSPSTLSASVGDRITITCRASQNINYWLAWYQQKPGKAPKLLIYKASSLAGGVPSRFSGSGSGTDFTLTINSLQPDDFATYYCQKYNTYSLNFGGGTKVEIK"
readout_unit = "RU"
value_measured = 118


Could you tell me 50 nM SRA + 5 uM apoL1 peptide binding (RU) for each of these binders? They are listed below.
1. H1H10067P (antibody, V domains shown, Fully human antibody with human IgG1 Fc (prefix H1H)) VH: QVQLQESGPGLVKPSQTLSLTCIVSGGSISSGDYYWNWIRQHPGKGLEWIGDIYHSGDTYYNPSLKSRVTISLDTSKNQFSLKLSSLTAADTAVYYCARDRIVATGGGMDVWGQGTTVTVSS VL: DIQMTQSPSTLSASVGDRVTITCRASQSISSWLAWYQRKPGKAPNLLIYRSSSLESGVPSRFSGSGSGTEFTLTISSLQADDFVIYYCQQYNSYPYTFGQGTKLEIK
2. H2aM10204N (antibody, V domains shown, Chimeric antibody, human variable domains and mouse constant domains (mouse Fc, prefix H2aM); also called H2M10204N) VH: QVHLVQSGAEVKKPGSSVKVSCKASGGTFSNYAISWVRQAPGQGLEWMGGIIPFSGSATYAQNFQGRITITTDESTRTAYMELNGLRSEDTAVYYCARWFSGYGGDFDYWGQGTLVTVSS VL: AIQMTQSPSSLSASVGDRVTITCRASQDIKNDLGWYQQKPGKAPKLLIYAASTLQSGVPSRFSGSGSGTHFTLTLSSLQPEDFATYFCLQDYTFPRTFGQGTKVEIK

Response:
98
3
